meta.source: PubChem BioAssay AID493221

- TARGET_ENTITY: High affinity choline transporter 1 (Homo sapiens)
- MEASUREMENT_DESCRIPTION: CHT inhibitors, confirmation, cell-based, membrane potential dye, duplicate (AID 493221)
- EXPERIMENTAL_PARAMETERS: CHT-expressing cells, at 10 µM, LV-to-AA substituted CHT, HEK293 cells
Out of some 2,400 compounds screened, about 1,700 (71%) were called active.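 Rule for the calls: active = choline transporter activity left, mean of duplicates at 10 µM, below buffer-only control mean minus 3 SD; inactive = the rest.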 So high a share suggests a set chosen from earlier hits. Not all results are given here.
Possible outcomes: YES = active, NO = inactive

[[record]]
compound = "COc1ccc(-n2nnnc2CNC(=O)c2ccc3ccccc3c2)cc1"
category = "YES"

[[record]]
compound = "COc1ccc(NC(=O)c2sc(N)nc2-c2ccccc2)cc1"
category = "YES"

[[record]]
compound = "Cc1cccc(-c2nc3ccc(C(=O)NCCN4CCN(C)CC4)cc3nc2-c2cccc(C)c2)c1"
category = "YES"

[[record]]
compound = "CCN(CC(=O)NCc1ccc(Cl)cc1)C(=O)CSc1ccccc1"
category = "NO"

[[record]]
compound = "CCc1cc2c(N3CCN(c4nnc(CC)s4)CC3)ncnc2s1"
category = "YES"

[[record]]
compound = "CCCCOc1ccc(Cl)cc1CSc1nncn1N"
category = "NO"

[[record]]
compound = "OC1CN=C2Sc3ccccc3N2C1 (centres undefined)"
category = "YES"

[[record]]
compound = "CCC(Oc1ccccc1C)C(=O)Nc1ccc(S(=O)(=O)Nc2cc(C)on2)cc1 (centres undefined)"
category = "YES"

[[record]]
compound = "CCN(CC)Cc1c(C(=O)N/N=C/c2cccc(OCc3ccc(F)cc3)c2)nnn1-c1nonc1N"
category = "NO"

[[record]]
compound = "CC(C)(C)C(=O)/C(C#N)=C/c1ccc(O)cc1"
category = "YES"

[[record]]
compound = "O=C(Nc1ccn(Cc2ccccc2)n1)c1n[nH]c([N+](=O)[O-])c1Cl"
category = "YES"

[[record]]
compound = "Cc1ccc2c(C)c(C(=O)N3CCC(N4CCC(C(=O)NC5CC5)CC4)CC3)oc2c1"
category = "YES"

[[record]]
compound = "CCCCCn1c(=O)c(C(=O)OCC)c(Cl)c2ccccc21"
category = "YES"

[[record]]
compound = "Cc1ccc(CS(=O)(=O)c2ncc(Cl)c(C(=O)Nc3nnc(C)s3)n2)cc1"
category = "YES"

[[record]]
compound = "O=C(c1c(F)cccc1Cl)N1CCN(S(=O)(=O)c2ccc3c(c2)OCCCO3)CC1"
category = "NO"

[[record]]
compound = "O=C(O)c1ccc(N/N=C/c2cn(-c3ccccc3)nc2-c2cccs2)cc1"
category = "YES"

[[record]]
compound = "N#Cc1ccc(C(=O)Nc2cccc3cccnc23)c(F)c1"
category = "NO"

[[record]]
compound = "O=C(c1cccs1)C1C(c2ccc(Br)cc2)NC(=S)NC1(O)C(F)(F)F (centres undefined)"
category = "YES"

[[record]]
compound = "Cc1cc(NS(=O)(=O)c2ccc(NC(=O)C(C)Oc3cccc(C)c3C)cc2)nc(C)n1 (centres undefined)"
category = "YES"

[[record]]
compound = "CCN(CC)CCC(c1ccc2c(c1)OCO2)c1c(OC)cc(OC)c2c(-c3ccccc3)cc(=O)oc12 (centres undefined)"
category = "YES"

[[record]]
compound = "COc1ccc(C(=O)NNC(=S)NC(=O)c2ccccc2)cc1"
category = "YES"

[[record]]
compound = "CC(C)n1c(=S)[nH]c2cc(C(F)(F)F)ccc21"
category = "YES"

[[record]]
compound = "O=C(Nc1nonc1-c1ccc(Cl)cc1)c1ccco1"
category = "YES"

[[record]]
compound = "Cc1ccc(C(=O)N/C(=C/C=C/c2ccccc2)C(=O)NCc2ccco2)cc1"
category = "YES"

[[record]]
compound = "O=C(NCCc1ccc2c(c1)OCCO2)c1cc2ccccc2o1"
category = "YES"

[[record]]
compound = "CN(CCC#N)c1ncnc2scc(-c3ccccc3)c12"
category = "YES"

[[record]]
compound = "Cc1oc2c(F)c(F)c(F)c(F)c2c1S(=O)(=O)Nc1cccc(C(F)(F)F)c1"
category = "YES"

[[record]]
compound = "COc1cc2ccccc2cc1C(=O)Nc1ccc(S(=O)(=O)Nc2cc(C)on2)cc1"
category = "YES"

[[record]]
compound = "O=C(OCC(=O)c1c[nH]c2ccccc12)c1cccc(O)c1"
category = "YES"

[[record]]
compound = "COc1ccc(C(=O)NC(=S)NNC(=O)CCc2ccccc2)cc1"
category = "YES"

[[record]]
compound = "COc1ccc(OCC(=O)OCCN(C)C)cc1"
category = "YES"

[[record]]
compound = "O=C(Nc1ccccc1C(=O)NCCCn1ccnc1)c1ccc(Cl)cc1Cl"
category = "YES"

[[record]]
compound = "Cc1[nH]c2ccccc2c1C(=O)CN1CCCC(C)C1 (centres undefined)"
category = "YES"

[[record]]
compound = "C/C(=N\\N=C(N)N)c1ccc(Cl)cc1"
category = "YES"

